# Tested on: OVCAR-5 ovarian
# assay-comment: NCI-60 one-dose screen, 48 h
# measurement-context: 10 µM unless noted
# Description: Growth inhibition of the OVCAR-5 human tumor cell line is measured as a screen for anti-cancer activity. Cells are grown in 96 well plates and exposed to the test compound for 48 hours. Compounds are tested at a single concentration, which is 10^-5 M for most compounds. The reported endpoint is percent growth (GI% or GIPRCNT), where numbers from 0 - 100% represent growth inhibition, and numbers from -100% - 0 represent cell death. For example, a value of 40 represents 60% growth inhibition. […]
Compounds without any hit were thinned out: in the full panel of roughly 83,000, 20% have a hit. Active and inactive are the calls of the source. Rule for the calls: active = growth percent below 10; inactive = the rest.
Possible outcomes: active, inactive

[[record]]
compound_structure_string = "COc1cccc(/C=C/c2nc3ccccc3c(=O)n2CC(=O)Nc2ccccc2)c1"
classification = "inactive"

[[record]]
compound_structure_string = "CN1CCN(C(=O)CCN(C(=O)Oc2cc3c(c4ccccc24)[C@H](CCl)CN3C(=O)c2cc3cc(OCCCN4CCC4)ccc3[nH]2)[C@H]2CCSSC2)CC1"
classification = "active"

[[record]]
compound_structure_string = "Cc1ccc(S(=O)(=O)Nc2ccc(-c3ccc4c(c3)NC(=O)/C4=C\\c3ccc[nH]3)cc2)cc1"
classification = "inactive"


---

# System: NCI-H226 lung
# assay-comment: NCI-60 one-dose screen, 48 h
# measurement-context: 10 µM unless noted
About 83,000 compounds went through this panel and 20% of them were active in at least one assay; those are over-represented in the sample as a whole. Calls of active or inactive are those of the source. Rule for the calls: active = growth percent below 10; inactive = the rest.
Possible outcomes: T (active), F (inactive)

[[record]]
molecule = "COc1cc2cc(C(=O)N3C[C@@H](CCl)c4c3cc(OC(=O)N(CCC(=O)N3CCN(C)CC3)C3CCCCC3)c3ccccc43)[nH]c2c(OC)c1OC"
classification = "T"

[[record]]
molecule = "CC[C@]12C=CCN3CC[C@]4(C(=C(C(=O)OC)C1)Nc1cc(OC)c([C@@H]5[C@H]6O[C@H]6[C@@]6(CC)CC(C(=O)OC)=C7Nc8cc(OC)ccc8[C@@]78CCN5[C@@H]68)cc14)[C@@H]32"
classification = "F"

[[record]]
molecule = "COc1c(B(O)O)cccc1-c1nc2ccc3cn[nH]c3c2c2c1CCCC2"
classification = "F"

[[record]]
molecule = "O=C(NC(=S)N1CCN(c2ncnc3c2cnn3-c2ccccc2)CC1)c1ccc(Br)cc1"
classification = "F"

[[record]]
molecule = "Cc1nn(-c2ccccc2)c2nc(C)n(C(=O)N/N=C/c3cccc([N+](=O)[O-])c3)c(=O)c12"
classification = "F"

[[record]]
molecule = "O=C(O)CC1S/C(=N/N=C/c2nc3ccccc3s2)NC1=O (stereo not drawn)"
classification = "F"

[[record]]
molecule = "CC[C@]12C=CCN3CC[C@]4(C(=C(C(=O)OC)C1)Nc1cc(OC)c([C@@H]5[C@H]6O[C@H]6[C@@]6(CC)CC(C(=O)OC)=C7Nc8cc(O)ccc8[C@@]78CCN5[C@@H]68)cc14)[C@@H]32"
classification = "T"

[[record]]
molecule = "N#Cc1c(-c2ccc(F)cc2)nc(SCc2ccccc2)nc1N1CCNCC1"
classification = "T"

[[record]]
molecule = "COc1ccc2[nH]c(=O)c(CSc3ccccc3Nc3nccc(-c4ccc5c(c4)OCO5)n3)cc2c1"
classification = "F"

[[record]]
molecule = "C[C@@H]1CN(c2ccc3ncc(C#Cc4cncc(C(=O)Nc5ccc(CN6CCN(C)CC6)c(C(F)(F)F)c5)c4)n3n2)C[C@@H](C)O1"
classification = "T"

[[record]]
molecule = "CCCCCCCCCc1ccc(C(=O)Nc2cc(C)ccc2C(=O)OC)cc1"
classification = "F"

[[record]]
molecule = "COc1ccc(NC(=O)Cn2c(/C=C/c3cccc(Br)c3)nc3ccccc3c2=O)cc1"
classification = "T"

[[record]]
molecule = "COc1cccc(/C=C/c2nc3ccccc3c(=O)n2CC(=O)Nc2ccccc2)c1"
classification = "F"

